Reported IC50 is given for each of the following molecules.
# target-under-test: human JAK1 (a.a. 837-1142) (Homo sapiens)
# Construct: human JAK1 (a.a. 837-1142); His tag (N); made in house; host or cells: insect cells (baculovirus)
# Sequence (P23458 849-1154): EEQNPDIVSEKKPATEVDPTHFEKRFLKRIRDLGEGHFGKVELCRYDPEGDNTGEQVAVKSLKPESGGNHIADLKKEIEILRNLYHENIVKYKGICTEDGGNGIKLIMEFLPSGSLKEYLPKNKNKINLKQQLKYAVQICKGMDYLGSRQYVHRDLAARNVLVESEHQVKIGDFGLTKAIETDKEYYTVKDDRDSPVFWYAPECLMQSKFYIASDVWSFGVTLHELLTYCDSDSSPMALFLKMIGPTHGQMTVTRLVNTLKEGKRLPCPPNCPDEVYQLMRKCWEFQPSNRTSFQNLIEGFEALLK
# method-description: In vitro JAK kinase assay (HTRF, phosphorylation of a biotinylated peptide), JAK1
# Format: biochemical
# particulars: Assay Conditions 1 mM ATP
Where a name gives a salt, the structure may show the parent alone.

| molecule | IC50 |
| --- | --- |
| N#CC[C@@H]([C@H]1CCN(c2ncc(Br)nc2C#N)C1)n1cc(-c2ncnc3[nH]ccc23)cn1 [Example 142] | < 50 nM |
| N#CC[C@@H]([C@H]1CCN(c2nc(Br)ccc2F)C1)n1cc(-c2ncnc3[nH]ccc23)cn1.O=C(O)C(F)(F)F.O=C(O)C(F)(F)F [Example 88, bis(trifluoroacetate)] | < 50 nM |
| N#CCC(C1CCN(c2nc3cccc(C#N)c3o2)C1)n1cc(-c2ncnc3[nH]ccc23)cn1 (single isomer, unassigned) [Example 160] | < 50 nM |
| N#CC[C@@H]([C@H]1CCN(c2cccc(C(F)(F)F)c2C#N)C1)n1cc(-c2ncnc3[nH]ccc23)cn1 [Example 56, trifluoroacetate salt] | < 50 nM |
| CS(=O)(=O)c1nccc(N2CCC(C(CC#N)n3cc(-c4ncnc5[nH]ccc45)cn3)C2)n1 (single isomer, unassigned) [Example 25] | < 50 nM |
| N#CCC(n1cc(-c2ncnc3[nH]ccc23)cn1)C1(F)CCN(c2nc3cccnc3o2)C1 (single isomer, unassigned) [31, Step 4b, enantiomer 2] | 100 to 500 nM |
| N#CC[C@@H]([C@H]1CCN(c2c(F)cccc2C#N)C1)n1cc(-c2ncnc3[nH]ccc23)cn1 [Example 58, trifluoroacetate salt] | < 50 nM |
| N#CCC(C1CCN(c2nc3cccc(F)c3o2)C1)n1ccc(-c2ncnc3[nH]ccc23)c1 (single isomer, unassigned) [Example 158-1] | < 50 nM |
| COCc1ccnc(N2CC[C@H]([C@H](CC#N)n3cc(-c4ncnc5[nH]ccc45)cn3)C2)c1C#N [Example 96, tris(trifluoroacetate)] | < 50 nM |
| N#Cc1cccnc1N1CC[C@H](C(CF)n2cc(-c3ncnc4[nH]ccc34)cn2)C1 (stereo partly shown) [Example 118, trifluoroacetate] | < 50 nM |
| N#CC[C@@H]([C@H]1CCN(c2scc(C#N)c2C#N)C1)n1cc(-c2ncnc3[nH]ccc23)cn1 [Example 79] | < 50 nM |
| N#CC[C@@H]([C@H]1CCN(c2ncsc2C#N)C1)n1cc(-c2ncnc3[nH]ccc23)cn1 [Example 82] | < 50 nM |
| CS(=O)(=O)c1cccc(N2CCC(C(CC#N)n3cc(-c4ncnc5[nH]ccc45)cn3)C2)n1 (single isomer, unassigned) [Example 26] | 50 to 100 nM |

* * *

# target-under-test: Jak2 (a.a. 828-1132) (Homo sapiens, UniProt O60674)
# Construct: Jak2 (a.a. 828-1132); His tag (N); made in house; host or cells: insect cells (baculovirus)
# Sequence (O60674 828-1132): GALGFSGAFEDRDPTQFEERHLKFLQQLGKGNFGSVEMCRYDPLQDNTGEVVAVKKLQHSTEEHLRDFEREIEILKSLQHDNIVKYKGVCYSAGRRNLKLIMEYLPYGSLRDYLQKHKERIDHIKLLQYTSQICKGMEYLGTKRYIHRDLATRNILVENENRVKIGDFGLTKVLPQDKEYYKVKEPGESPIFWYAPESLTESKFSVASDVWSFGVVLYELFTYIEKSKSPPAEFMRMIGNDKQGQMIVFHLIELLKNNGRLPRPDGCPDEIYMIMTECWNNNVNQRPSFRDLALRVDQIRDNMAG
# method-description: In vitro JAK kinase assay (HTRF, phosphorylation of a biotinylated peptide), JAK2, reported as JAK2/JAK1 ratio
# Type: biochemical
# particulars: Assay Conditions 1 mM ATP
Counter-ions that a name gives are not always drawn.
Reported JAK2/JAK1 IC50 ratio is given for each of the following molecules.

| molecule | target-under-test | JAK2/JAK1 IC50 ratio |
| --- | --- | --- |
| CS(=O)(=O)c1ccc(F)c(N2CC[C@H]([C@H](CC#N)n3cc(-c4ncnc5[nH]ccc45)cn3)C2)n1 [Example 133, trifluoroacetate] | Jak2 (a.a. 828-1132) (Homo sapiens, UniProt O60674) | 3 |
| CSc1ccnc(N2CC[C@H]([C@H](CC#N)n3cc(-c4ncnc5[nH]ccc45)cn3)C2)c1C#N [Example 127, trifluoroacetate] | Jak2 (a.a. 828-1132) (Homo sapiens, UniProt O60674) | 11.0 |
| N#CCC(C1CCN(c2ncc3cc[nH]c3c2C#N)C1)n1cc(-c2ncnc3[nH]ccc23)cn1 (single isomer, unassigned) | Jak2 (a.a. 828-1132) (Homo sapiens, UniProt O60674) | >5.4 |
| COc1ncnc(N2CC[C@H]([C@H](CC#N)n3cc(-c4ncnc5[nH]ccc45)cn3)C2)c1C#N [Example 98, trifluoroacetate] | Jak2 (a.a. 828-1132) (Homo sapiens, UniProt O60674) | >9.1 |
| N#CC[C@@H]([C@H]1CCN(c2ccnnc2C#N)C1)n1cc(-c2ncnc3[nH]ccc23)cn1 [Example 106, trifluoroacetate salt] | Jak2 (a.a. 828-1132) (Homo sapiens, UniProt O60674) | 12.6 |
| N#CC[C@@H]([C@H]1CCN(c2cccnc2C#N)C1)n1cc(-c2ncnc3[nH]ccc23)cn1 [Example 68, trifluoroacetate salt] | Jak2 (a.a. 828-1132) (Homo sapiens, UniProt O60674) | 8.2 |
| N#CC[C@@H]([C@H]1CCN(c2cncc(Cl)c2C#N)C1)n1cc(-c2ncnc3[nH]ccc23)cn1 [Example 64, trifluoroacetate salt] | Jak2 (a.a. 828-1132) (Homo sapiens, UniProt O60674) | 11 |
| N#CCC(C1CCN(c2ncc3ccsc3c2C#N)C1)n1cc(-c2ncnc3[nH]ccc23)cn1 (single isomer, unassigned) | Jak2 (a.a. 828-1132) (Homo sapiens, UniProt O60674) | 15.4 |
| N#CCC(C1CCN(c2scnc2C#N)C1)n1ccc(-c2ncnc3[nH]ccc23)c1 (racemic) [Example 149-rac] | Jak2 (a.a. 828-1132) (Homo sapiens, UniProt O60674) | 14.5 |
| N#CCC(n1cc(-c2ncnc3[nH]ccc23)cn1)C1(F)CCN(c2nc3cccnc3o2)C1 (single isomer, unassigned) [31, Step 4a, enantiomer 1] | Jak2 (a.a. 828-1132) (Homo sapiens, UniProt O60674) | 5.6 |
| N#CCC(C1CCN(c2ncc3c(c2C#N)SCC3)C1)n1ccc(-c2ncnc3[nH]ccc23)c1 (single isomer, unassigned) [Example 174-1] | Jak2 (a.a. 828-1132) (Homo sapiens, UniProt O60674) | 28.5 |
| N#Cc1cccc(N2CC[C@H](C(CF)n3cc(-c4ncnc5[nH]ccc45)cn3)C2)c1C#N (stereo partly drawn) [Example 121, trifluoroacetate] | Jak2 (a.a. 828-1132) (Homo sapiens, UniProt O60674) | 4.4 |

Cited source: patent US8716303B2
